Assay: qHTS Assay for Small Molecule Inhibitors of Mitochondrial Division or Activators of Mitochondrial Fusion; also: nearly all actives have a fitted effect of over 45% in size
Settings: S. cerevisiae fusion-defective mutant growth rescue, CellTiterGlo 48 h; series mostly up to 46.1 µM
Hit rate of the full screen: of about 320,000 compounds, about 740 (0.23%) were called active. Roughly 2% stayed inconclusive and do not appear here. Calls follow the shape of the dose curve; as a rule, active = well fitted activation curve with a large enough effect; inconclusive = small, poorly fitted or top-dose-only effect; inactive = no such curve, though single readings can be large or run the other way. This is one part of a sample in which actives are shown more often than they occur.
Assign a class; possible classes are yes = active, no = inactive

## Input Give the logged outcome of this assay for the following molecule: O=C(C(NS(=O)(=O)c1cccc2nsnc12)c1ccccc1)N1CCN(c2ccccn2)CC1 (stereo not given)
## Output no

## Input Give the logged outcome of this assay for the following molecule: `O=C(c1ccc(S(=O)(=O)c2ccccc2)cc1)N1CCCCCC1`
## Output no

## Input Give the logged outcome of this assay for the following molecule: `COc1ccc(Nc2nc(-c3cccnc3)nc3ccccc23)cn1`
## Output no

## Input Give the logged outcome of this assay for the following molecule: O=C(C(NS(=O)(=O)c1cccc2nsnc12)c1ccccc1)N1CCN(c2ccccc2)CC1 (stereo not given)
## Output yes

## Input Give the logged outcome of this assay for the following molecule: `CC(=O)Nc1cccc(Nc2nc(-c3cccs3)nc3ccccc23)c1`
## Output no

----------
Test: qHTS Assay for Small Molecule Inhibitors of Mitochondrial Division or Activators of Mitochondrial Fusion; also: nearly all actives have a fitted effect of over 45% in size
Settings: S. cerevisiae fusion-defective mutant growth rescue, CellTiterGlo 48 h; series mostly up to 46.1 µM
The whole screen tested about 320,000 compounds, of which about 740 (0.23%) were called active. Another 2% or so got no clear call; they are omitted. The call rests on the fitted dose curve; in most records, active means well fitted activation curve with a large enough effect; inconclusive means small, poorly fitted or top-dose-only effect; inactive means no such curve, though single readings can be large or run the other way. Many of the other results were omitted from the sample, so actives are more common in it than they were.
Assign a class; possible classes are 1 (yes) = active, 0 (no) = inactive

## Input Give the logged outcome of this assay for the following molecule: `CN(c1ccccn1)c1ncnc2[nH]ncc12`
## Output 0 (no)

## Input Give the logged outcome of this assay for the following molecule: `O=C(N/N=C/c1c(Cl)[nH]c2ccccc12)c1sc2ccccc2c1Cl`
## Output 1 (yes)

## Input Give the logged outcome of this assay for the following molecule: `COc1ccc(-c2c(-c3cc(OC)cc(OC)c3)n(C)c3ccc(-c4ccn[nH]4)cc23)cc1`
## Output 1 (yes)

## Input Give the logged outcome of this assay for the following molecule: `COc1ccccc1-n1c(-c2ccc(C)cc2)cn2c3c(=O)n(C)c(=O)n(C)c3nc12`
## Output 0 (no)

## Input Give the logged outcome of this assay for the following molecule: COc1ccc(Cl)cc1NS(=O)(=O)c1cccc(C(=O)NC2CCC(O)CC2)c1 (stereo not given)
## Output 0 (no)

## Input Give the logged outcome of this assay for the following molecule: `CN(C)c1cc2c(Nc3ccc4c(cnn4Cc4ccccc4)c3)ncnc2cn1`
## Output 1 (yes)

## Input Give the logged outcome of this assay for the following molecule: `CC(C)C(=O)Nc1ccc2c3c(cccc13)CC2`
## Output 0 (no)

## Input Give the logged outcome of this assay for the following molecule: `COc1cc(OC)cc(-c2c(-c3ccc(F)cc3)c3cc(-c4ccc5cc[nH]c5c4)ccc3n2C)c1`
## Output 0 (no)

## Input Give the logged outcome of this assay for the following molecule: `COCCNC(=S)N/N=C/c1c(C)[nH]c2ccccc12`
## Output 0 (no)

## Input Give the logged outcome of this assay for the following molecule: `COc1cc(OC)cc(-c2c(-c3cccs3)c3cc(-c4ccc(OC)nc4)ccc3n2C)c1`
## Output 0 (no)

Where do the numbers come from? From PubChem BioAssay AID485298.
